All figures here come from ChEMBL document CHEMBL3822363.

For each entry below, report its CC50 at 24 h value.
protocol text: Cytotoxicity against human umbilical cord cells assessed as reduction in cell viability after 24 hrs by DAPI staining based flow cytometry
setup conditions: human umbilical cord cells, read-out: LC50
One number for each entry, in µM.

1) C=C1C(=O)O[C@H]2[C@H]1C[C@H](OC(C(=O)OCc1ccccc1)c1ccccc1)/C(C)=C/CC[C@@]1(C)O[C@@H]21 (stereo in doubt; 25a) : 12.2
2) C=C1C(=O)O[C@H]2[C@H]1C[C@H](OC(C(=O)OCC)c1ccc(C(F)(F)F)cc1)/C(C)=C/CC[C@@]1(C)O[C@@H]21 (stereo in doubt; 22a) : 7.3
3) C=C1C(=O)O[C@@H]2[C@@H]1CC/C(COC(C(=O)OCC)c1ccc(C(F)(F)F)cc1)=C/CC[C@]1(C)O[C@H]21 (stereo in doubt; 23b) : 8.8

Turning to the following compound.
Request: Please give the measured CC50 at 24 h for this compound: `C=C1C(=O)O[C@@H]2[C@H]3O[C@]3(C)CC/C=C(\C)CC[C@@H]12`
Response: 42

----------
protocol text: Cytotoxicity against patient-derived primary AML01 cells assessed as reduction in cell viability after 24 hrs by Annexin V/7-AAD staining based flow cytometry
Format: functional, Homo sapiens
setup conditions: Homo sapiens, AML01, 24 h; read-out: LC50 (the source's name)
For each entry below, report its CC50 value.
One number for each entry, in µM.

Consider the worked cases shown below.
1. C=C1C(=O)O[C@@H]2[C@@H]1CC/C(COC(C(=O)OCC)c1ccc(OC)cc1)=C/CC[C@]1(C)O[C@H]21 (stereo not given in full) : 8.5
2. C=C1C(=O)O[C@@H]2[C@H]3O[C@]3(C)CC/C=C(\C)CC[C@@H]12 : 6.1
3. C=C1C(=O)O[C@H]2[C@H]1CC/C(COC(C(=O)OCCN1CCCC1)c1ccccc1)=C/CC[C@@]1(C)O[C@@H]21 (stereo not given in full) : 23.6
4. C=C1C(=O)O[C@H]2[C@H]1CC/C(COC(=O)c1cc(-c3ccc(Br)cc3)n[nH]1)=C/CC[C@@]1(C)O[C@@H]21 : 2.2
5. C=C1C(=O)O[C@H]2[C@H]1C[C@H](OC(C(=O)OCC)c1ccc(C(F)(F)F)cc1)/C(C)=C/CC[C@@]1(C)O[C@@H]21 (stereo in doubt; 22a) : 3.4

Provide each entry's CC50 from the list below.
1. C=C1C(=O)O[C@@H]2[C@@H]1CC/C(COC(C(=O)OCC)c1ccc(C(F)(F)F)cc1)=C/CC[C@]1(C)O[C@H]21 (stereo in doubt; 23a)
2. C=C1C(=O)O[C@H]2[C@H]1CC/C(COC(C(=O)OCCN1CCOCC1)c1ccccc1)=C/CC[C@@]1(C)O[C@@H]21 (stereo not given in full)
3. C=C1C(=O)O[C@H]2[C@H]1C[C@H](OC(C(=O)OCc1ccccc1)c1ccccc1)/C(C)=C/CC[C@@]1(C)O[C@@H]21 (stereo in doubt; 25a)
4. C=C1C(=O)O[C@H]2[C@H]1CC/C(COC(C(=O)OCc1ccccc1)c1ccccc1)=C/CC[C@@]1(C)O[C@@H]21 (stereo in doubt; 26a)
5. C=C1C(=O)O[C@H]2[C@H]1C[C@H](OC(C(=O)OCCN1CCOCC1)c1ccccc1)/C(C)=C/CC[C@@]1(C)O[C@@H]21 (stereo not given in full)

Response:
1: 2.5; 2: 22.4; 3: 5.1; 4: 3.2; 5: 40

----------
protocol text: Cytotoxicity against human umbilical cord cells assessed as reduction in cell viability after 24 hrs by DAPI staining based flow cytometry
setup conditions: 24 h, read-out: LC50 (the source's name)
measurement label: CC50 (µM)
Numbers only, in µM.

Consider the worked cases shown below.
1. C=C1C(=O)O[C@H]2[C@H]1C[C@H](OC(C(=O)OCc1ccccc1)c1ccccc1)/C(C)=C/CC[C@@]1(C)O[C@@H]21 (stereo in doubt; 25b) : 10.9
2. C=C1C(=O)O[C@H]2[C@H]1C[C@H](OC(C(=O)OCC)c1ccc(C(F)(F)F)cc1)/C(C)=C/CC[C@@]1(C)O[C@@H]21 (stereo in doubt; 22b) : 2.7
3. C=C1C(=O)O[C@H]2[C@H]1CC/C(COC(C(=O)OCc1ccccc1)c1ccccc1)=C/CC[C@@]1(C)O[C@@H]21 (stereo in doubt; 26a) : 3.7

Provide each entry's CC50 from the list below.
1. C=C1C(=O)O[C@H]2[C@H]1CC/C(COC(C(=O)OCc1ccccc1)c1ccccc1)=C/CC[C@@]1(C)O[C@@H]21 (stereo in doubt; 26b)
2. C=C1C(=O)O[C@@H]2[C@@H]1CC/C(COC(C(=O)OCC)c1ccc(C(F)(F)F)cc1)=C/CC[C@]1(C)O[C@H]21 (stereo in doubt; 23a)

Response:
1. 5.5
2. 5.4

----------
For each entry below, report its CC50 value.
protocol text: Cytotoxicity against human M9-ENL1 cells assessed as reduction in cell viability after 24 hrs by Annexin V/7-AAD staining based flow cytometry
Format: functional
setup conditions: Homo sapiens, M9-ENL1, 24 h; read-out: LC50 (the source's name)
State the value, then name its unit.

1. C=C1C(=O)O[C@H]2[C@H]1C[C@H](OC(C(=O)OCC)c1ccc(C(F)(F)F)cc1)/C(C)=C/CC[C@@]1(C)O[C@@H]21 (stereo in doubt; 22a) : 4.1 µM
2. C=C1C(=O)O[C@H]2[C@H]1C[C@H](OC(C(=O)OCC)c1ccccc1C(F)(F)F)/C(C)=C/CC[C@@]1(C)O[C@@H]21 (stereo partly drawn) : 3.9 µM

Turning to the following compound.
Request: Please give the measured CC50 for this compound: C=C1C(=O)O[C@H]2[C@H]1CC/C(COC(C(=O)OCc1ccccc1)c1ccccc1)=C/CC[C@@]1(C)O[C@@H]21 (stereo in doubt; 26a)
Response: 4 µM
